run description: Metabolite profiling of human plasma after [14C] cabozantinib (mass balance study)
Format: in vivo
details: single 175 mg oral dose of cabozantinib (L-malate salt) with [14C] cabozantinib, HPLC Method 1
recorded metric: peak on plasma radio-chromatograms

COc1cc2nccc(Oc3ccc(NC(=O)C4(C(=O)Nc5ccc(F)cc5)CC4)cc3)c2cc1OC [Cabozantinib, reference compound]; major peaks
COc1cc2c(Oc3ccc(NC(=O)C4(C(=O)Nc5ccc(F)cc5)CC4)cc3)cc[n+]([O-])c2cc1OC [Compound 19]; major peaks
COc1cc2nccc(Oc3ccc(NC(=O)C4(C(=O)Nc5ccc(F)cc5OS(=O)(=O)O)CC4)cc3)c2cc1OC [Compound 9]; major peaks
